# run description: qHTS assay for identifying genotoxic compounds that show differential cytotoxicity against isogenic chicken DT40 cell lines with known DNA damage response pathways - Rev3 mutant cell line (AID 743014); also: nearly all actives have a fitted effect of over 55% in size; also: potency is read from the fitted curve at half-maximal effect
# details: chicken DT40 Rev3-/- viability, CellTiter-Glo, 40 h; series mostly up to 68.4 µM
Records with an inconclusive call do not appear. The source made the active and inactive calls. Calls follow the shape of the dose curve; as a rule, active = well fitted cell-killing curve with a large enough effect in the repeat runs; inconclusive = weak or mixed curves, or effect the other way; inactive = no such curve, though single readings can be large or run the other way.
measurement kind: Potency

Before answering, review these 6 worked examples.
{"compound": "COc1cc(/C=C/C(=O)O[C@H]2CC[C@]34C[C@]35CC[C@]3(C)[C@@H]([C@H](C)CCC=C(C)C)CC[C@@]3(C)[C@@H]5CC[C@H]4C2(C)C)ccc1O", "measurement": "inactive"}
{"compound": "COc1ccc(-c2ccc3cc(C(=O)O)ccc3c2)cc1C12CC3CC(CC(C3)C1)C2", "measurement": "inactive"}
{"compound": "Nc1ccc2c3c(cccc13)-c1ccccc1-2", "measurement": "27.6 µM (active)"}
{"compound": "O=C(NOCC1CC1)c1ccc(F)c(F)c1Nc1ccc(I)cc1Cl", "measurement": "29.8 µM (active)"}
{"compound": "CN1CCN(CCC(=O)N2c3ccccc3Sc3ccc(C(F)(F)F)cc32)CC1", "measurement": "13.3 µM (active)"}
{"compound": "CCCCc1oc2ccc(NS(C)(=O)=O)cc2c1C(=O)c1ccc(OCCCN(CCCC)CCCC)cc1", "measurement": "13.3 µM (active)"}

# Potency (compound: "O=C(Oc1cccc2cccnc12)c1ccccc1" ) is 2.98 µM (active)

Recorded Potency (compound "CCCCCCC[N+](CC)(CC)CCCCc1ccc(Cl)cc1" ): 1.43 µM (active)

Record summary for "On1ccccc1=S" : reported Potency = 0.215 µM (active)

Lookup result for "O=c1c(-c2ccccc2)c1-c1ccccc1" ; measured Potency: 4.73 µM (active)
